Assay: Cmax in CAnN.Cg-Foxnlnu/CrlCrlj mouse plasma at 100 mg/kg, po single dose measured up to 24 hrs by liquid chromatography tandem mass spectrometry
Type: ADME, organism-based
Set-up: route oral, dose 100 mg/kg, time <=24
measuredProperty: Cmax (ng/mL)
Answers are plain numbers, in ng/mL.

Exam item: Request the reported Cmax associated with Cc1ccc(-n2c(=O)c(C(=O)Nc3ccc(Oc4ncnc5c4CCN(CC4CCN(C)CC4)C5)c(F)c3)cn(C3CCCC3)c2=O)nc1
Marked response: 10900

* * *

Test: Solubility in PBS
Type: physicochemical
measuredProperty: solubility (µM)
Numbers only, in µM.

Exam item: Name the reported solubility value associated with the compound Cc1ccc(-n2c(=O)c(C(=O)Nc3ccc(Oc4ncnc5c4CCN(CC4CCN(C)CC4)C5)c(F)c3)cn(C3CCCC3)c2=O)nc1
Marked response: 83
